- testMethodNotes: Displacement of [125I]-1DMeNPFF from mouse NPFF1 receptor by TopCount scintillation counting method
Give measured Ki for each item. Keep answers brief.
# output: bare number, implied unit nM

The molecule listed as "CC(C)C[C@H](NC(=O)[C@H](CC(N)=O)NC(=O)[C@@H]1CCCN1C(=O)[C@@H](N)C(C)C)C(=O)N1CCC[C@H]1C(=O)N[C@@H](CCC(N)=O)C(=O)N[C@@H](CCCNC(=N)N)C(=O)N[C@@H](Cc1ccccc1)C(N)=O" shows Ki equal to 0.19

The molecule listed as "N=C(N)NCCC[C@@H](NC(=O)C=C(c1ccccc1)c1ccccc1)C(=O)N[C@H](Cc1ccccc1)C(N)=O" shows Ki equal to 22

The molecule listed as "N=C(N)NCCC[C@@H](NC(=O)C(c1ccccc1)c1ccccc1)C(=O)N[C@@H](C(N)=O)c1ccccc1" shows Ki equal to 78

* * *

- studyTarget: KiSS-1 receptor (Homo sapiens)
- Sequence (Q969F8 whole entry): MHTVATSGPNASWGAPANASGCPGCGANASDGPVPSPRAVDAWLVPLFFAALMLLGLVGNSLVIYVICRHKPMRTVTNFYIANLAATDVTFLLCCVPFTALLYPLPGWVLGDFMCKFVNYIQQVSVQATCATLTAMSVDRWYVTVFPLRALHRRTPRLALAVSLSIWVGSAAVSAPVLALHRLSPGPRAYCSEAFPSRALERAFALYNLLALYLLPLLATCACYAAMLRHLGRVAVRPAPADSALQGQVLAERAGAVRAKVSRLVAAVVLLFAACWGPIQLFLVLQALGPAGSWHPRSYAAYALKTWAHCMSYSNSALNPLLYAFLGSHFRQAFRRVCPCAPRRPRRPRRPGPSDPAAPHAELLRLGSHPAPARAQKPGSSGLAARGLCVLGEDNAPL
measuredProperty: Ki

The compound listed as "N=C(N)NCCC[C@@H](NC(=O)C(c1ccccc1)c1ccccc1)C(=O)N[C@@H](C(N)=O)c1ccccc1" shows Ki equal to > 5 µM

* * *

- Species on record: Homo sapiens
- testMethodNotes: Selectivity ratio of Ki for displacement of [125I]-1DMeNPFF from human NPFF2 receptor expressed in CHO cells to Ki for displacement of [125I]-1DMeNPFF from human NPFF1 receptor expressed in CHO cells
- Assay type: cell-based
True means recorded Ratio Ki is 30 or above; False means it is below 30.

## Task Kindly determine if Ratio Ki recorded for "N=C(N)NCCC[C@@H](NC(=O)C=C(c1ccccc1)c1ccccc1)C(=O)N[C@@H](Cc1ccccc1Br)C(N)=O" is above or exactly 30.
## Result False

## Task Kindly determine if Ratio Ki recorded for "N=C(N)NCCC[C@H](NC(=O)C12CC3CC(CC(C3)C1)C2)C(=O)N[C@@H](Cc1ccccc1)C(N)=O" is above or exactly 30.
## Result False

## Task Kindly determine if Ratio Ki recorded for "N=C(N)NCCC[C@@H](NC(=O)C=C(c1ccccc1)c1ccccc1)C(=O)N[C@@H](Cc1ccccc1)C(N)=O" is above or exactly 30.
## Result True

## Task Kindly determine if Ratio Ki recorded for "CC[C@H](C)[C@H](NC(=O)[C@@H](CCCNC(=N)N)NC(=O)C=C(c1ccccc1)c1ccccc1)C(N)=O" is above or exactly 30.
## Result True

## Task Kindly determine if Ratio Ki recorded for "N=C(N)NCCC[C@@H](NC(=O)C=C(c1ccccc1)c1ccccc1)C(=O)N[C@H](Cc1ccccc1Br)C(N)=O" is above or exactly 30.
## Result False

## Task Kindly determine if Ratio Ki recorded for "N=C(N)NCCC[C@@H](NC(=O)C=C(c1ccccc1)c1ccccc1)C(=O)N[C@H](Cc1ccccc1)C(N)=O" is above or exactly 30.
## Result True

## Task Kindly determine if Ratio Ki recorded for "N=C(N)NCCC[C@@H](NC(=O)C=C(c1ccccc1)c1ccccc1)C(=O)N[C@@H](Cc1ccc(O)cc1)C(N)=O" is above or exactly 30.
## Result False

## Task Kindly determine if Ratio Ki recorded for "N=C(N)NCCC[C@@H](NC(=O)/C=C/c1ccccc1)C(=O)N[C@H](Cc1ccccc1)C(N)=O" is above or exactly 30.
## Result False
